For each record, write down the corresponding pEC50.
Tested on: CDD spheroids (cortical neurons and astrocytes derived from human iPSCs)
Assay: HT calcium oscillation assay in CDD spheroids (high throughput screening, Scalar Perturbation and Parameter Recovery analysis)
Format: cell-based
Conditions: Homo sapiens, iPSC; six concentrations 0.0003 to 1 μM, nonlinear regression fit, n=4 spheroids per concentration; read-out: EC50 (dose-response of Parameter Recovery percentage)
Source text: CDD High Throughput Screening (HTS) platform development. An HTS platform for CDD was developed. Briefly, the HTS system relies on spheroids derived from human iPSCs that comprise a balanced culture of cortical neurons and astrocytes. These spheroids display quantifiable, robust and uniform spontaneous calcium oscillations which correlated with synchronous neuronal activity. The CDD HTS platform uses cells derived from CDD1 and Controll lines. Chemical library and drug treatment. […]
Keep it numeric: pEC50 is minus log10 of the concentration in mol/L.

Look up pEC50 of COc1cc2c(cc1OC)CC(=O)N(CCCN(C)C[C@H]1Cc3cc(OC)c(OC)cc31)CC2 and report it.
7.39

# return recorded pEC50 for input C[C@H](NC(=O)CCC(F)(F)F)C(=O)N[C@@H]1C(=O)N(CCO)c2ncccc2-c2ccccc21
6.05
